target: Dual specificity protein kinase CLK4 (Homo sapiens); test: qHTS Assay for Inhibitors of CDC-like Kinase 4 (ADP-Glo Assay) (AID 1771); conditions: recombinant CLK4, ADP-Glo luminescence; series mostly up to 80 µM; note: nearly all actives have a fitted effect of over 70% in size
Records with an inconclusive call do not appear. The source made the active and inactive calls. Calls come from the whole dose curve; as a rule, active = well fitted inhibition curve with a large enough effect; inconclusive = small, poorly fitted or top-dose-only effect; inactive = flat fitted curve, though single readings scatter.
Pick one: active, inactive

smiles_representation	answer_label
c1ccc(CNc2ncnc3ccc(-c4cccnc4)cc23)cc1	active
COCCn1c(=O)c(C)nc2cnc(Oc3ccc(OC)cc3)nc21	inactive
Cc1nc2cnc(Nc3ccccc3)nc2n(CCC#N)c1=O	inactive

From here, focus on the item given below.
Asked: GET /call?item= O=c1c(-c2cc(F)cc(F)c2)nc2cncnc2n1Cc1ccccc1 returns the recorded outcome of this test.
Given back: inactive
